# Experimental Target: oestrogen receptor (ER) (Homo sapiens)
# Construct: These MVLN cells express, along with the functional oestrogen receptor (ER), a reporter construct; endogenous in cells
# Test Name: Anti-oestrogenic action in MVLN cells (inhibition of estradiol-induced luciferase, transactivation antagonism)
# Details: inhibition of estradiol-induced luciferase activity, read-out: Anti-oestrogenic action in vitro: MVLN transactivation antagonism IC50
pIC50: −log10 of the molar value.
Measured pIC50 accompanies every entry in the list below.
Reported Property: pIC50

{"columns": ["Compound", "Reported Property", "Recorded Measurement"],
 "data": [
  ["O=S(=O)(CCCN(CCO)CCCCCCC1=C(c2ccccc2)CCCc2cc(O)ccc21)CCCC(F)(F)C(F)(F)F", "pIC50", 7.89],
  ["CN(CCCCCC1=C(c2ccccc2)CCCc2cc(O)ccc21)CCCCS(=O)(=O)CCC(F)(F)F", "pIC50", 6.60],
  ["CN(CCCCCC[S+]([O-])CCCC(F)(F)C(F)(F)F)CCCCCC1=C(c2cccc(O)c2)CCCc2cc(O)ccc21 (racemic)", "pIC50", 8.70],
  ["COCCN(CCCCCCC1=C(c2ccc(F)c(O)c2)CCCc2cc(O)c(F)cc21)CCC[S+]([O-])CCCC(F)(F)C(F)(F)F (racemic)", "pIC50", 8.70],
  ["CN(CCCCCCC1=C(c2ccccc2)CCCc2c1ccc(O)c2Cl)CCCCS(=O)(=O)CCC(F)(F)F", "pIC50", 7.06],
  ["CCN(CCCCCCC1=C(c2ccccc2)CCCc2cc(O)ccc21)CCCS(=O)(=O)CCC(F)(F)F", "pIC50", 7.21],
  ["[O-][S+](CCCN(CCO)CCCCCCC1=C(c2ccccc2)CCCc2cc(O)ccc21)CCC(F)(F)F (racemic)", "pIC50", 7.96],
  ["CC(C)(O)CN(CCCCCCC1=C(c2cccc(O)c2)CCCc2cc(O)ccc21)CCC[S+]([O-])CCCC(F)(F)C(F)(F)F (racemic)", "pIC50", 8.70],
  ["CN(CCCCCC1=C(c2cccnc2)CCCc2cc(O)ccc21)CCC[S+]([O-])CCCC(F)(F)C(F)(F)F (racemic)", "pIC50", 7.57],
  ["[O-][S+](CCCN(CCO)CCCCCCC1=C(c2cccc(O)c2)CCCc2cc(O)ccc21)CCCC(F)(F)C(F)(F)F (racemic)", "pIC50", 9.00],
  ["O=S(=O)(CCCN(CCO)CCCCCCC1=C(c2ccccc2)CCCc2cc(O)ccc21)CCC(F)(F)F", "pIC50", 8.05],
  ["CN(CCCCCCC1=C(c2ccc(S(C)(=O)=O)cc2)CCCc2cc(O)ccc21)CCCS(=O)(=O)CCCC(F)(F)C(F)(F)F", "pIC50", 8.52],
  ["COCCCN(CCCCCCC1=C(c2ccc(F)c(O)c2)CCCc2cc(O)c(F)cc21)CCC[S+]([O-])CCCC(F)(F)C(F)(F)F (racemic)", "pIC50", 8.30],
  ["CN(CCCCCCC1=C(c2ccc(F)c(O)c2)CCCc2c1ccc(O)c2F)CCCCS(=O)(=O)CCC(F)(F)F", "pIC50", 8.15]
]}

====

Below, each entry is listed with its recorded pIC50.
# Experimental Target: oestrogen receptor (ER) (Homo sapiens)
# Construct: These MVLN cells express, along with the functional oestrogen receptor (ER), a reporter construct; endogenous in cells
# Test Name: Anti-oestrogenic action in MVLN cells (inhibition of estradiol-induced luciferase, transactivation antagonism)
# Details: inhibition of estradiol-induced luciferase activity, read-out: Anti-oestrogenic action in vitro: MVLN transactivation antagonism IC50
# Excerpt: The anti-oestrogenic action of the claimed pharmacological compounds was investigated in so-called MVLN cells in vitro. MVLN cells are derivatives of the hormone-responsive MCF7 breast cancer cells known by a person skilled in the art. These MVLN cells express, along with the functional oestrogen receptor (ER), a reporter construct, which under ER-activation expresses luciferase. […]
pIC50: −log10 of the molar value.
Reported Property: pIC50

{"columns": ["Compound", "Experimental Target", "Reported Property", "Recorded Measurement"],
 "data": [
  ["CN(CCCCCCC1=C(c2ccc(F)c(O)c2)CCCc2cc(O)c(F)cc21)CCCCS(=O)(=O)CCCC(F)(F)F", "oestrogen receptor (ER) (Homo sapiens)", "pIC50", 8.30],
  ["[O-][S+](CCCN(CCO)CCCCCCC1=C(c2ccccc2)CCCc2cc(O)ccc21)CCCC(F)(F)C(F)(F)F (racemic)", "oestrogen receptor (ER) (Homo sapiens)", "pIC50", 8.70],
  ["CN(CCCCCCC1=C(c2ccccc2)CCCc2cc(O)ccc21)CCC[S+]([O-])CCC(F)(F)C(F)(F)F (racemic)", "oestrogen receptor (ER) (Homo sapiens)", "pIC50", 8.05],
  ["CN(CCCCCCC1=C(c2ccc(F)c(O)c2)CCCc2c1ccc(O)c2F)CCCC[S+]([O-])CCC(F)(F)F (racemic)", "oestrogen receptor (ER) (Homo sapiens)", "pIC50", 8.30]
]}

====

# Experimental Target: oestrogen receptor (ER) (Homo sapiens)
# Construct: These MVLN cells express, along with the functional oestrogen receptor (ER), a reporter construct; endogenous in cells
# Test Name: Anti-oestrogenic action in MVLN cells (inhibition of estradiol-induced luciferase, transactivation antagonism)
# Details: inhibition of estradiol-induced luciferase activity, read-out: Anti-oestrogenic action in vitro: MVLN transactivation antagonism IC50
pIC50: −log10 of the molar value.
Reported Property: pIC50

{"columns": ["Compound", "Recorded Measurement"],
 "data": [
  ["CN(CCCCCCC1=C(c2ccc(F)c(O)c2)CCCc2c1ccc(O)c2F)CCCCS(=O)(=O)CCCC(F)(F)F [Example 118]", 8.05],
  ["CN(CCCCCCC1=C(c2ccc(O)cc2)CCCc2cc(O)ccc21)CCC[S+]([O-])CCCC(F)(F)C(F)(F)F (racemic) [Example 26]", 9.00],
  ["CN(CCCCCCC1=C(c2ccc(F)c(O)c2)CCCc2cc(O)ccc21)CCCCCC[S+]([O-])CCCC(F)(F)C(F)(F)F (racemic) [Example 34]", 8.30],
  ["CN(CCCCCCC1=C(c2ccc(F)c(O)c2)CCCc2c1ccc(O)c2F)CCCS(=O)(=O)CCCC(F)(F)C(F)(F)F [Example 114]", 7.70],
  ["CN(CCCCCCC1=C(c2ccc(F)c(O)c2)CCCc2cc(O)c(F)cc21)CCCS(=O)(=O)CCC(F)(F)F [Example 126]", 7.49],
  ["CN(CCCCCCC1=C(c2cccc(O)c2)CCCc2cc(O)ccc21)CCCCCS(=O)(=O)CCCC(F)(F)C(F)(F)F [Example 17]", 8.40],
  ["CN(CCCCCCC1=C(c2cccc(O)c2)CCCc2cc(O)ccc21)CCCS(=O)(=O)CCC(F)(F)C(F)(F)F [Example 54]", 8.70],
  ["CN(CCCCCC1=C(c2ccc(S(C)(=O)=O)cc2)CCCc2cc(O)ccc21)CCCSCCCC(F)(F)C(F)(F)F [Example 45]", 7.19],
  ["CC(C)(O)CN(CCCCCCC1=C(c2cccc(O)c2)CCCc2cc(O)ccc21)CCCS(=O)(=O)CCCC(F)(F)C(F)(F)F [Example 93]", 9.00]
]}

====

Measured IC50, listed per entry for reference.
# Experimental Target: oestrogen receptor (ER) (Homo sapiens, UniProt P03372)
# Construct: These MVLN cells express, along with the functional oestrogen receptor (ER), a reporter construct; endogenous in cells
# Sequence (P03372 whole entry): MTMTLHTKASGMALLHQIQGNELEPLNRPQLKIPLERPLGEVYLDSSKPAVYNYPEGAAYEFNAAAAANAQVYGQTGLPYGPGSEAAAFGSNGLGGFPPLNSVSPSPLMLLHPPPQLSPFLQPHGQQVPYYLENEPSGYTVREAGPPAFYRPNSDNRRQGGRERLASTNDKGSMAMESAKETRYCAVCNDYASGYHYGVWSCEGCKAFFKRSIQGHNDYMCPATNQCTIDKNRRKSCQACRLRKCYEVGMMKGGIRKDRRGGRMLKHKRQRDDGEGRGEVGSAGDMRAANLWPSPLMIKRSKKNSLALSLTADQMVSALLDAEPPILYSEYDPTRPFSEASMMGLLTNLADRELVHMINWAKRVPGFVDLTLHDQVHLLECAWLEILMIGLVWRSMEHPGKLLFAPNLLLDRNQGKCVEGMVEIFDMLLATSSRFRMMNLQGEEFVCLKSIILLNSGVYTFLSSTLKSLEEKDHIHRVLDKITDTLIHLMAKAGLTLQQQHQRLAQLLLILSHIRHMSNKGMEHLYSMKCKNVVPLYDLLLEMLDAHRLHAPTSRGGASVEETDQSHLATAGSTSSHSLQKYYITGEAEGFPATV
# Test Name: Anti-oestrogenic action in MVLN cells (inhibition of estradiol-induced luciferase, transactivation antagonism)
# Details: inhibition of estradiol-induced luciferase activity, read-out: Anti-oestrogenic action in vitro: MVLN transactivation antagonism IC50

{"columns": ["Compound", "Unit Abbrev", "IC50"],
 "data": [
  ["O=S(=O)(CCCN(CCCO)CCCCCCC1=C(c2ccccc2)CCCc2cc(O)ccc21)CCCC(F)(F)C(F)(F)F [Example 73]", "nM", 17],
  ["CC(C)(O)CN(CCCCCCC1=C(c2cccc(O)c2)CCCc2cc(O)ccc21)CCCS(=O)(=O)CCC(F)(F)F [Example 100]", "nM", 3],
  ["CN(CCCCCC1=C(c2ccccc2)CCCc2cc(O)ccc21)CCCC[S+]([O-])CCCC(F)(F)C(F)(F)F (racemic) [Example 84]", "nM", 31],
  ["[O-][S+](CCCNCCCCCC1=C(c2ccccc2)CCCc2cc(O)ccc21)CCCC(F)(F)C(F)(F)F (racemic) [Example 50]", "nM", 7],
  ["CN(CCCCCCC1=C(c2ccc(F)c(O)c2)CCCc2c1ccc(O)c2F)CCCCS(=O)(=O)CCCC(F)(F)C(F)(F)F [Example 117]", "nM", 11],
  ["CN(CCCCCCC1=C(c2ccc(F)c(O)c2)CCCc2cc(O)ccc21)CCCCC[S+]([O-])CCCC(F)(F)C(F)(F)F (racemic) [Example 32]", "nM", 3],
  ["CCN(CCCCCCC1=C(c2cccc(O)c2)CCCc2cc(O)ccc21)CCCS(=O)(=O)CCC(F)(F)F [Example 65]", "nM", 6]
]}
